All values here come from paper PMC5906549.

Assay: Cell viability MTS assay in Vero cells
Settings: African green monkey
Peptide text beside a SMILES is read from it.
PROPERTY: EC50 at 48 h

COMPOUND	EC50 at 48 h
CC[C@H](C)[C@H](N)C(=O)N[C@@H](CCCCN)C(=O)N[C@@H](Cc1c[nH]c2ccccc12)C(=O)N[C@@H](CCCCN)C(=O)N[C@@H](CCCCN)C(=O)N[C@@H](CC(C)C)C(=O)N[C@@H](CC(C)C)C(=O)N[C@@H](CCCNC(=N)N)C(=O)N[C@@H](C)C(=O)N[C@@H](C)C(=O)N[C@@H](CCCCN)C(=O)N[C@@H](CCCNC(=N)N)C(=O)N[C@H](C(=O)N[C@@H](CC(C)C)C(=O)O)[C@@H](C)CC [DASamP2] (H-IKWKKLLRAAKRIL-OH)	> 50 µM

# next compound below
## Task Supply measured EC50 at 48 h of CC[C@H](C)[C@H](NC(=O)[C@H](CCCNC(=N)N)NC(=O)[C@H](CCC(N)=O)NC(=O)[C@@H](NC(=O)[C@@H](NC(=O)[C@@H](N)CCCNC(=N)N)[C@@H](C)CC)C(C)C)C(=O)N[C@@H](CCCCN)C(=O)N[C@@H](CC(=O)O)C(=O)N[C@@H](Cc1ccccc1)C(=O)N[C@@H](CC(C)C)C(=O)O [RI-10, reference compound] (H-RIVQRIKDFL-OH; N-terminus and C-terminus assumed) in your reply.
## Result > 50 µM
